# reported melting point; entries follow
The reply should be a number in °C, with the unit left off.

Illustrative cases are given below, each with its answer.
Cc1cccc(-c2nc(N)ncc2-c2ccc(=O)n(C(C)C)n2)c1 [Example 57]; 198
Cc1ccccc1-c1nc(N)ncc1-c1ccc(=O)n(C)n1 [Example 70]; 229
CC(C)n1nc(-c2cnc(N)nc2-c2ccccc2OCCF)ccc1=O [Example 210]; 171
Cc1cccc(-c2nc(N)ncc2-c2ccc(=O)n(C)n2)c1 [Example 71]; 214
Cc1ccc(-c2nc(N)ncc2-c2ccc(=O)[nH]n2)cc1 [Example 35]; 249
CCCCCCOc1cccc(-c2nc(N)ncc2-c2ccc(=O)n(C(C)C)n2)c1 [Example 208]; 121

State its melting point: CC(C)n1nc(-c2cnc(N)nc2-c2cccnc2)ccc1=O [Example 52]
204
